Test: Biological availability, blood and liver of rats
Format: in vivo
Conditions: rat, serum, ip; intraperitoneal 100 mg/kg, 60 minutes; read-out: content in blood serum
Readout Label: concentration at 1 h (ng/mL)
Reply with just the number (in ng/mL).

Input: Quick one: concentration at 1 h for CCN(CC)CCCC(C)NC(=O)c1cc(C=Cc2ccc([N+](=O)[O-])o2)nc2ccccc12 (stereo not shown) [giniquine] ?
Output: 3000

----------
Test: LD50 / toxicity, mice with 7-days Ehrlich ascitic tumor
Assay type: in vivo
Details: mouse, in vivo, iv, single injection, female
Readout Label: LD50 (mg/kg)
Reply with just the number (in mg/kg).

Input: Quick one: LD50 for CCN(CC)CCCC(C)NC(=O)c1cc(C=Cc2ccc([N+](=O)[O-])o2)nc2ccccc12 (stereo not shown) ?
Output: 17.5
